Test system: M14 melanoma
experimental_protocol: NCI tumour cell line growth inhibition, 48 h
quantity_name: TGI

1. Cc1cc(Nc2ccc3c(c2)OCO3)c2cc3c(cc2n1)OCO3 : 6.99 µM
2. CC(=O)c1cc(I)c(O)c2ncccc12 : 4.09 µM
3. COC(=O)C1=C(C)C(=O)[C@H]2C(C(=O)OC)CCCC[C@@H]12 (stereo partly drawn) : > 100 µM
4. Cc1ccc(NC(=O)SCCC(=O)O)cc1 : > 100 µM
5. CCOP(=O)(OCC)/C(C#N)=C\c1ccc(OC(C)=O)cc1 : > 100 µM
6. CCOC(=O)/C(SC#N)=C(/N)N1CCCC1 : > 100 µM
7. CC1OC(OC2C(O)CC(OC3C(O)CC(OC4CCC5(C)C(CCC6C5CCC5(C)C(C7=CC(=O)OC7)CCC65O)C4)OC3C)OC2C)CC(O)C1O (stereo not drawn) : 0.268 µM
8. C[CH2][Pb]([CH2]C)([CH2]C)[O]C(=O)COc1ccccc1 : 6.67 µM
9. Oc1ccc(-c2nc(=S)[nH][nH]2)cc1 : > 100 µM
10. CCOC(=O)C1=C(OC(OCC)C(C)[Se]c2ccccc2)CCC1 (stereo not drawn) : 63.2 µM
11. CCOC(=O)/C(=C\NCc1ccc2c(c1)OCO2)c1nc2ccccc2[nH]1 : > 100 µM
12. Cc1cc(C(C)C)cc(O)c(=O)c1 : > 100 µM
13. Nc1nc(N)c2c(Cl)c(CNc3ccc(C(=O)NC(CC(=O)O)C(=O)O)cc3)ccc2n1 (stereo not drawn) : > 100 µM
14. O=C(O)CSc1ccc(N=C=S)cc1 : > 100 µM
15. C/C(=N\NC(=O)c1ccncc1)c1ccccc1Cl : > 100 µM
16. CO/C(=N\N=Cc1ccccc1)c1ccncc1 : > 100 µM
17. [N-]=[N+]=NC1C2CC3C4CC5CC3[C@H](C2)C(C5)C41 (stereo partly drawn) : > 100 µM
18. COc1cc([C@@H]2C3C(=O)c4ccccc4C3[C@@H](c3cc(OC)c(OC)c(OC)c3)C23Cc2ccccc2C3=O)cc(OC)c1OC (stereo partly drawn) : > 100 µM
19. CC(=O)N1C(Nc2cnc3ccccc3c2)CCN1c1ccccc1 (stereo not drawn) : > 10 µM
20. COc1ccc(OC)c2c1C(=O)C(=O)C(Cl)=C2O : > 100 µM
21. O=C(N/N=C(\CN1CCN(c2cc3[nH]cc(C(=O)O)c(=O)c3cc2F)CC1)c1ccc(Cl)cc1)c1ccncc1 : 79.5 µM
22. CCOC(=O)c1ccc(NC(=O)O/N=C(/Cl)CC)cc1 : 25.6 µM
23. CC1(C)NC(C)(C)/C(=N\O)C(=NO)/C1=N/O : > 100 µM

###

Tested on: SNB-75 CNS
experimental_protocol: NCI tumour cell line growth inhibition, 48 h
Property: TGI; scope: individual compounds
quantity_name: TGI

1. O=C(O)CSc1ccc(N=C=S)cc1 : > 100 µM
2. CC(=N\O)/C(C)=N/O.CC(=N\O)/C(C)=N/O.CC(=N\O)/C(C)=N/O.CC(=N\O)/C(C)=N/O.[CH3-].[CH3-].[Co].[Co] : 38.7 µM
3. CN/N=C(\C)c1c(O)cc(C)oc1=O : > 100 µM
4. O=C(CCCCN1CCOCC1)Nc1ccc(Cn2nnc3c2C(=O)c2nnn(Cc4ccc(NC(=O)CCCCN5CCOCC5)cc4)c2C3=O)cc1 : 0.806 µM
5. CC(=O)OCC1(C)C(OC(C)=O)CCC2(C)C(CC(OC(C)=O)C3=CCOC3=O)C(O)(CO)CCC12 (configuration not stated) : > 100 µM
6. CCOC(=O)/C(C#N)=C/c1ccc(SCc2ccco2)c([N+](=O)[O-])c1 : > 100 µM
7. COc1cc(-c2csc(NC(=O)Nc3ccc(Cl)c(C(F)(F)F)c3)n2)cc(OC)c1OC : 3.17 µM
8. O=C1c2cccc(O)c2C(=O)c2cccc(O)c21 : > 100 µM
9. C/C(=N\NC(=O)c1ccncc1)c1cccc(F)c1 : > 10 µM
10. CC(CC(=O)O)(CC(=O)O)c1ccccc1 : > 100 µM
11. CC(C)OC(=O)c1cc(NS(=O)(=O)c2ccc3ccccc3c2)cc(C(=O)OC(C)C)c1 : 66.2 µM
12. O=Cc1cn(Cc2ccc(Cl)cc2)c2ccccc12 : > 100 µM
13. CCC(=O)OC1CCC2C3CCC(=O)OC3C(C)(CCC(=O)O)CC12C (configuration not stated) : > 100 µM
14. O=C(Nc1cccc(Cl)c1)Nc1nccs1 : 56.1 µM
15. CCCCCCCCCCn1cccc1/C=C/c1ccc(/C=C/c2cccn2CCCCCCCCCC)cc1 : > 100 µM
16. Cc1nc(N)nn1C1OCC(O)C(O)C1O (configuration not stated) : > 100 µM
17. O=C(CCc1ccc(O)c(O)c1)NCCc1cc(O)cc(OCc2ccccc2)c1 : > 100 µM
18. C/C(=N\NC(=O)c1ccncc1)c1ccccc1Cl : > 100 µM
19. CCC1(O)CC(OC2CC(N(C)C)C(OC3CC(O)C(OC4CCC(=O)C(C)O4)C(C)O3)C(C)O2)c2c(cc3c(c2O)C(=O)c2c(O)ccc(O)c2C3=O)C1C(=O)OC (configuration not stated) : 0.0846 µM
20. CCOC(=O)/C=C1/SC(N2CCCCC2)C(=O)N1CC (configuration not stated) : > 100 µM
21. ClCCn1cnc2c(SCc3ccccc3Cl)ncnc21 : > 63.2 µM
22. CC1(C)CN=C(Nc2ccc(F)cc2)S1 : > 100 µM

###

Property: TGI; scope: individual compounds
Tested on: HS 578T breast
experimental_protocol: NCI tumour cell line growth inhibition, 48 h
quantity_name: TGI

1. O=Cc1cn(Cc2ccc(Cl)cc2)c2ccccc12 : > 100 µM
2. Cc1ccc(Cl)cc1-c1nc(N)nc(Nc2ccc(Br)cc2)n1 : > 48.5 µM
3. C#CCOC(=O)C(N)C(C)O (stereo unspecified) : > 100 µM
4. Nc1ccc(C(=O)NN2C(=O)[C@H](Cl)C2c2ccc(Cl)cc2)cc1 (stereo partly specified) : 4.02 µM
5. Oc1cccc(-c2nc(-c3n[nH]c(=S)n3-c3ccccc3)cc3c2[nH]c2ccccc23)c1 : 24.6 µM
6. Cc1ccc(NC2=N[C@]34CC(=O)CC[C@]3(C)[C@H]3CC[C@]5(C)C(=O)CC[C@H]5[C@@H]3C[C@@H]4S2)c(C)c1 : > 100 µM
7. O=C(CCc1ccc(O)c(O)c1)OCCc1ccccc1 : > 100 µM
8. O=CN/N=C/c1ccc(Cl)c([N+](=O)[O-])c1 : 40.7 µM
9. C=CCOC(=O)C[C@H](NC(=O)[C@H](Cc1ccc(O)cc1)NCC(F)(F)F)C(=O)OCC=C : > 100 µM
10. Cc1nc2cc(Nc3nc(N4CCCCC4)nc(N4CCOCC4)n3)ccc2n1Cc1ccccc1 : > 100 µM
11. Cc1nn(CCO)c(C)c1N=[N+]([O-])c1c(C)nn(CCO)c1C : 53.1 µM

###

System: HOP-92 NSCLC
experimental_protocol: NCI tumour cell line growth inhibition, 48 h
Property: TGI; scope: individual compounds
quantity_name: TGI

1) NC1C(O)C(O)C(CO)OC1n1cc(F)c(=O)[nH]c1=O (configuration not stated) : > 100 µM
2) COC(=O)C1=CN(CC2=CC(=O)C(C)=CC2=O)C=C(C(=O)OC)C1c1cc(OC)ccc1OC : 11.9 µM
3) CC(C)c1ccc(/C=C2\N=C(c3ccc([N+](=O)[O-])cc3)OC2=O)cc1 : > 100 µM
4) CCCN(CCC)c1ccc(CO)c(Cl)c1 : 31.2 µM
5) O=C(Nc1ccc(Cl)c(Cl)c1)C(=O)C(C(=O)c1ccccc1F)C1OC(=O)c2ccccc21 (configuration not stated) : > 100 µM
6) CN(/N=C(\C(=O)O)c1ccccc1)C1=NCCN1 : > 100 µM
7) COc1cccc2c(Nc3ccc(S(=O)(=O)N=C(N)N)cc3)c3ccc([N+](=O)[O-])cc3nc12 : > 100 µM
8) C=CCc1cccc2cc(C(N)=O)c(=N)oc12 : > 100 µM
9) c1ccc2c(c1)CCN2CCN1CCc2ccccc21 : > 10 µM
10) O=C(O)CSc1ccc(N=C=S)cc1 : > 100 µM
11) CCc1cccc(C)c1NC(=O)CC(=O)NNC(N)=S : > 100 µM
12) CC(=O)c1c2c(cc3c1CC1(C3)Cc3cc4c(c(C(=O)O)c3C1)CCCC4)CCCC2 (configuration not stated) (tested in a mixture with another compound) : 39.7 µM
13) c1ccc(C(NC2CCCCC2NCCNC2CCCCC2NC(c2ccccc2)(c2ccccc2)c2ccccc2)(c2ccccc2)c2ccccc2)cc1 (configuration not stated) : 33.7 µM
14) O=c1[nH]c2cc(F)c(F)cc2nc1Cc1ccccc1 : > 100 µM
15) Nc1ccc(S(=O)(=O)Nc2cnc3ccccc3n2)cc1 : > 100 µM
16) CC(CC(=O)O)(CC(=O)O)c1ccccc1 : > 100 µM
17) O=C1O/C(=C\c2ccc(O)c(Br)c2)C(c2ccc(O)c(Cl)c2)=C1Br : 35.7 µM
18) CCOC(=O)/C(SC#N)=C(/N)N1CCCC1 : > 100 µM
19) Cc1cc(C(C)C)cc(O)c(=O)c1 : > 100 µM
20) COc1cc(/C=C2\N=C(c3ccccc3)N(c3nc4ccc(Sc5ccccc5)cc4[nH]3)C2=O)ccc1O : > 100 µM
21) [N-]=[N+]=Nc1c(N2CCOCC2)c(Cl)nc2ccccc12 : > 100 µM
22) COC(=O)CCc1ccc2c(c1)[C@H](C(=O)OC)[C@@H](c1ccc(O)cc1)O2 : > 100 µM
